Biological target: T1, TGFβ2 (transforming growth factor beta 2) (Homo sapiens, UniProt P61812 SEQ:1-112)
T1 sequence: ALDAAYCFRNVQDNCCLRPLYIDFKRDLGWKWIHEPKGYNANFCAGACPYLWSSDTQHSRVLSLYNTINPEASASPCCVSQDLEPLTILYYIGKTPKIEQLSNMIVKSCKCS
Experiment: filter; 37C; Ki 230 nM in cell assay
Conditions: chain copies: 2 (inferred, homodimer)
pKd: −log10 of the molar value.
REPORTED_PROPERTY: pKd

Give a short answer stating reported pKd for 14i-1 (ssRNA, 2'-F C and U) RNA: GGGAGGACGAUGCGGAAGUAACGUUGUAGUAAAAUUCGUUCUCUCGGCAUUUGGCCAGACGACUCGCCCGA . ~8.00
